FYI, the data here is from patent US20240150330A1.

Exercise: for every item that follows, state its recorded inhibition at 1 µM.
Target: human 5-HT1A receptor (Homo sapiens, UniProt P08908)
Construct: expressed in transfected cells; host or cells: CHO-K1
Sequence (P08908 whole entry): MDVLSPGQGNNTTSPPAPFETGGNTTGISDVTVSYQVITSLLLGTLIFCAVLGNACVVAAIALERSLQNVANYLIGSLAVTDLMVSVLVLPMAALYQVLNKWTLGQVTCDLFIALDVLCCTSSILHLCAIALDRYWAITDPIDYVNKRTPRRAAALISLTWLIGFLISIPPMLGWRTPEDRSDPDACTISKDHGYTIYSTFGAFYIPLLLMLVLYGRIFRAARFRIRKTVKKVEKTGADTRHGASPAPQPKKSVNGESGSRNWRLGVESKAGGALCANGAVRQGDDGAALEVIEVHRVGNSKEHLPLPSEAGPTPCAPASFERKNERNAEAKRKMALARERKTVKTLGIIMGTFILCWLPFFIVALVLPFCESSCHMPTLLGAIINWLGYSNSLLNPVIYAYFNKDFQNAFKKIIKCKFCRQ
Test: 5-HT1A Radioligand Binding Assay
Details: 1 μM test compound; competition with 0.9 nM [3H]-8-OH-DPAT; membranes of 5-HT1A expressing CHO-K1 cells

Entry NC[C@@H]1CCOc2c(-c3ccncc3)cccc21 [Compound 1] has what inhibition at 1 µM?
> 50%

Entry CNC[C@@H]1CCOc2c(-c3ccncc3)cccc21 [Compound 3] has what inhibition at 1 µM?
> 50%

Entry CNC[C@H]1CCOc2c(-c3ccncc3)cccc21 [Compound 4] has what inhibition at 1 µM?
> 90%

Entry NC[C@H]1CCOc2c(-c3ccncc3)cccc21 [Compound 2] has what inhibition at 1 µM?
> 90%
